The entries below are paired with their reported phosphorylation enrichment.
Molecular target: MERTK (UniProt Q12866)
Sequence (Q12866 whole entry, looked up): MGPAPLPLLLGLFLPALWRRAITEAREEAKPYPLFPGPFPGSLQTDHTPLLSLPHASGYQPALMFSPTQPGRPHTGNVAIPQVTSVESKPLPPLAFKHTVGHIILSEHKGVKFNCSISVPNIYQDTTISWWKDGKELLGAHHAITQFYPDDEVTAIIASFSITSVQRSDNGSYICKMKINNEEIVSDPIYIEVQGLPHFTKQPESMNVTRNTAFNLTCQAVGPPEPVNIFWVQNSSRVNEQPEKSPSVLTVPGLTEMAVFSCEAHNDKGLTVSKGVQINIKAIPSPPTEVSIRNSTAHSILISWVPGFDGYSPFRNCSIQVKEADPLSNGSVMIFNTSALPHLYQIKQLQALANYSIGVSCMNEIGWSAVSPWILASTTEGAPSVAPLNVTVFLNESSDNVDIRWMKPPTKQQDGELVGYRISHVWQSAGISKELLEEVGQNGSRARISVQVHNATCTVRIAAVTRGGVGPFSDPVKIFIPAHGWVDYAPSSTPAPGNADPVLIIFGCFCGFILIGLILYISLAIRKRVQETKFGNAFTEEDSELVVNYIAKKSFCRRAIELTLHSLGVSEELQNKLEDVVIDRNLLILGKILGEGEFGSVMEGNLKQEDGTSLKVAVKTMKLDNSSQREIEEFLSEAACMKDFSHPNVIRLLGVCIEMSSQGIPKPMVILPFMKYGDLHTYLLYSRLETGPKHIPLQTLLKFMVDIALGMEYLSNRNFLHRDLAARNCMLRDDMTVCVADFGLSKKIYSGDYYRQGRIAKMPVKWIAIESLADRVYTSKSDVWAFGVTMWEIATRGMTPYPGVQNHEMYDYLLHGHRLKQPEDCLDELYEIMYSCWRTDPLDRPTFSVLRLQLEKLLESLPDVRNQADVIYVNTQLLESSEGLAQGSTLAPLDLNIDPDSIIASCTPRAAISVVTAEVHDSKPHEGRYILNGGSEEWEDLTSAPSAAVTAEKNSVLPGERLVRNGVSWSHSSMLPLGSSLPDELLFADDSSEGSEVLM
Test: phosphorylation enrichment, bacterial display (enrichment ratio); higher = better substrate or ligand; peptides without Tyr show the background;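 note: 11-residue human phosphosite peptides and single-mutation variants displayed on the E. coli surface, counted by deep sequencing, each peptide's frequency after selection divided by its frequency in the unselected input library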;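 note: frequency after pTyr selection over input frequency; kinase dosed for 20-30% of maximal phosphorylation in three min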

Query: State its phosphorylation enrichment for this sequence: TGHKGYVAFLE [CARD9_Y76]
Result: 0.396

Query: Report phosphorylation enrichment, nothing else, for this sequence: PLTRSYIREKV [CYP2C8_Y243_A238P]
Result: 0.406

Query: Report phosphorylation enrichment for SVTWTYSPALN [TP53_Y126_C124W]
Result: 0.289

---

Recorded phosphorylation enrichment, one value per entry.
Target: Hck (UniProt P08631)
Sequence (P08631 whole entry, looked up): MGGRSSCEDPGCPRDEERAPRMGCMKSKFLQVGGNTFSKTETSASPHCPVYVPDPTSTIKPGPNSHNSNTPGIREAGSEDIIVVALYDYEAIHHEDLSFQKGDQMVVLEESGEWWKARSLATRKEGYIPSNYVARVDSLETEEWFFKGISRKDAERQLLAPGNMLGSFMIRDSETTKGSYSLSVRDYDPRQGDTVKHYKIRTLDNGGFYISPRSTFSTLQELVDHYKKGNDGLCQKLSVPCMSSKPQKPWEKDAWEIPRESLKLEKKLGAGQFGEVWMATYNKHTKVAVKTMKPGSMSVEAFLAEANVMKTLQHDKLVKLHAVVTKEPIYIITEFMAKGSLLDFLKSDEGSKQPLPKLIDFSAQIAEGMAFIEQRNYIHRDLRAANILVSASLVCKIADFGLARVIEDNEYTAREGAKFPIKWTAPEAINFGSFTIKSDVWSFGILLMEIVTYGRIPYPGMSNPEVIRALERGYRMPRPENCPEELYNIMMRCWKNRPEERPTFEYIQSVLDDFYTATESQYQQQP
Assay: phosphorylation enrichment, bacterial display (enrichment ratio); higher = better substrate or ligand; peptides without Tyr show the background
Output: the number by itself.

Query: Annotate the sequence TLQIMYGCDVG [HLA-A_Y123_I119L] with its measured phosphorylation enrichment.
Result: 0.625

Query: Please supply the value of reported phosphorylation enrichment for the item ILTFKYLQIPM [KIT_Y547_K550I_YF]
Result: 0.453

Query: Let me know recorded phosphorylation enrichment for GGGMIYPLDLF , thanks.
Result: 0.551

Query: Please look at this sequence and report its phosphorylation enrichment: TISPYYRQSLF [CRYAA_Y48]
Result: 0.433

Query: State its phosphorylation enrichment: IRTIDYRFTVW [IDS_Y497_YF]
Result: 0.489

Query: Give the reported phosphorylation enrichment for this sequence. TAGFIYEKWEI [TEC_Y360_S359I]
Result: 3.79

Query: Return reported phosphorylation enrichment. Input sequence: KDDEKYLDVSR [MTM1_Y260_I264S]
Result: 0.457

---

Molecular target: Fyn (UniProt P06241)
Sequence (P06241 whole entry, looked up): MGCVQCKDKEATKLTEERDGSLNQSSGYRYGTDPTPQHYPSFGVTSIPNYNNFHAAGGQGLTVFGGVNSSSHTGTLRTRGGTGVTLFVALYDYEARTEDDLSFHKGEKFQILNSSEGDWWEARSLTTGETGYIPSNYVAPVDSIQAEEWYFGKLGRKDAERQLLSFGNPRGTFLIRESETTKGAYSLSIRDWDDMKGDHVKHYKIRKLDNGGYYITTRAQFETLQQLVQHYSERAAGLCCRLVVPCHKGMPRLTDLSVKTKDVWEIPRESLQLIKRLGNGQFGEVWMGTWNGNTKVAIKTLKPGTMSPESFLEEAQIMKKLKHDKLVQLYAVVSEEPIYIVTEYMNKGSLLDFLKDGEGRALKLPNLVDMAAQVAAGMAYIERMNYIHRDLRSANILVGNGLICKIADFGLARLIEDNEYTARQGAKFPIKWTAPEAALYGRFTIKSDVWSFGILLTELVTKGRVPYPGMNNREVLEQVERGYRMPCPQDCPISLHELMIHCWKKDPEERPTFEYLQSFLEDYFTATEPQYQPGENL
Test: phosphorylation enrichment, bacterial display (enrichment ratio); higher = better substrate or ligand; peptides without Tyr show the background
assayMetric: phosphorylation enrichment
Please state the value as a number alone, without comment.

> print(dat)
                              seq  numericreadout
1        EVRAQYEEIAQ [KRT76_Y361]           0.526
2  EERNTYVNTTL [TEK_Y1102_K1100N]           0.446
3  SYCYRYRCAAQ [SUMF1_Y344_R349Q]           0.419
4   VEDQYYRVDCY [FHL1_Y208_C209R]           0.892

Query: Supply measured phosphorylation enrichment of YKEQGYHRLPP [RIN1_Y681] in your reply.
Result: 0.462

Query: Write down phosphorylation enrichment measured for item IPPRRYFRSGV [STAMBP_Y36]
Result: 0.639

Query: Provide one value: measured phosphorylation enrichment of SWSTSYSGYRY [NKAPL_Y91]
Result: 0.706

Query: Give me measured phosphorylation enrichment, please, for this sequence: VVKTVYSLQPS [KNSTRN_Y87_P92S]
Result: 1.73

Query: For the sequence ALRASYTPSPV [ESS2_Y418_A423V] , report phosphorylation enrichment.
Result: 0.39

Query: Determine from records and report phosphorylation enrichment for EQKKNYNAMKK [SCN5A_Y1495_Y1494N]
Result: 0.394

---

System: Fer (mouse)
Assay: phosphorylation enrichment, bacterial display (enrichment ratio); higher = better substrate or ligand; peptides without Tyr show the background
assayMetric: phosphorylation enrichment
# respond with the number and nothing more

Examples with answers:
> print(dat)
                              seq  numericreadout
1   CTTIRYNYMCN [TP53_Y234_H233R]           0.479
2  KLLPEYPGILS [DHFR2_Y163_V166I]           0.466

Query: Complete the entry with phosphorylation enrichment for SCRENYSFSEE [LEMD3_Y258_D260Y_YF]
Result: 0.53

Query: Identify the reported phosphorylation enrichment for the following entry. QRRLVYFERGA [RYR1_Y245_G248R_YF]
Result: 0.586

Query: Give recorded phosphorylation enrichment. ETAENYLGYTA [HSPA9_Y181_H184Y]
Result: 0.498

Query: Identify measured phosphorylation enrichment corresponding to GYKVRYATGSI [FGFR1_Y210_W213G]
Result: 0.34

Query: Indicate its recorded phosphorylation enrichment; the sequence in question is FNSLLYQVPTS [CALCOCO2_Y358_P357L]
Result: 15

Source: the supplement of paper PMC10065799
